pIC50 listing for selected molecules.
Molecular target: H1/Cal HA (biotinylated full length trimeric HA, A/California/07/2009) (Influenza A virus, UniProt C3W5X2)
Experiment: AlphaLISA competition assay with HB80.4, H1/Cal HA
pIC50: −log10 of the molar value.

smiles: CSCC[C@@H]1NC(=O)CNC(=O)CNC(=O)[C@H](C)NC(=O)[C@H](C(C)C)NC(=O)CNC(=O)[C@H](CC(C)C)NC(=O)[C@@H]2CCCN2C(=O)[C@H](CC(=O)O)NC(=O)[C@H](CCC(=O)O)NC(=O)[C@H](Cc2ccc(O)cc2)NC(=O)[C@H](CC(C)C)NC(=O)[C@@H]2CCCN2C(=O)[C@H]2CCCN2C(=O)CNC1=O
pIC50: 5.80
//
smiles: CSCC[C@@H]1NC(=O)CNC(=O)CNC(=O)[C@H](C)NC(=O)[C@H](C(C)C)NC(=O)CNC(=O)[C@H](CC(C)C)NC(=O)[C@@H]2CCCN2C(=O)[C@H](CC(=O)O)NC(=O)[C@H](CCC(=O)O)NC(=O)[C@H](Cc2ccc(O)cc2)NC(=O)[C@H](CC(C)C)NC(=O)[C@H](CO)NC(=O)[C@H](C(C)C)NC(=O)CNC(=O)[C@H]2CCCN2C(=O)[C@H](Cc2ccc(O)cc2)NC(=O)[C@H](C(C)C)NC(=O)CNC1=O
pIC50: 7.70
//
smiles: CSCC[C@@H]1NC(=O)CNC(=O)CNC(=O)[C@H](C)NC(=O)[C@H](C(C)C)NC(=O)CNC(=O)[C@H](CC(C)C)NC(=O)[C@@H]2CCCN2C(=O)[C@H](CC(=O)O)NC(=O)[C@H](CCC(=O)O)NC(=O)[C@H](Cc2ccc(O)cc2)NC(=O)[C@H](CC(C)C)NC(=O)[C@H](CO)NC(=O)[C@H]2CCCN2C(=O)[C@@H]2CCCN2C(=O)[C@H](C(C)C)NC(=O)CNC1=O
pIC50: 5.30

###

Target: H1/Nca HA (biotinylated full length trimeric HA, A/New Caledonia/20/1999) (Influenza A virus, UniProt Q6WG00)
Assay: AlphaLISA competition assay with HB80.4, H1/NCa HA
Type: binding, influenza A virus H1N1 A/New Caledonia/20/1999
pIC50: −log10 of the molar value.
measured.property: pIC50

smiles: CSCC[C@@H]1NC(=O)CNC(=O)CNC(=O)[C@H](C)NC(=O)[C@H](C(C)C)NC(=O)CNC(=O)[C@H](CC(C)C)NC(=O)[C@@H]2CCCN2C(=O)[C@H](CC(=O)O)NC(=O)[C@H](CCC(=O)O)NC(=O)[C@H](Cc2ccc(O)cc2)NC(=O)[C@H](CC(C)C)NC(=O)CNC(=O)CNC1=O
number: 6.20

###

# pIC50 values compiled below
Molecular target: H1/Nca HA (biotinylated full length trimeric HA, A/New Caledonia/20/1999) (Influenza A virus)
Test: AlphaLISA competition assay with HB80.4, H1/NCa HA
Format: binding, influenza A virus H1N1 A/New Caledonia/20/1999
From the text: Binding competition studies were designed to test compounds of the invention for competition with other well characterized HA binding proteins (such as e.g. CR9114, CR6261 and HB80.4) with known epitopes on HA. The epitopes where either located at the stem of the HA (viral membrane proximal part of HA) or, for control purposes, at the head of HA (viral membrane distal part of HA). […]
pIC50: −log10 of the molar value. Where a SMILES comes first, the peptide text is derived from it.

molecule: CCCC[C@H](NC(=O)CNC(=O)CNC(=O)[C@H](C)NC(=O)[C@@H](NC(=O)CNC(=O)[C@H](CC(C)C)NC(=O)[C@@H]1CCCN1C(=O)[C@H](CC(=O)O)NC(=O)[C@H](CCCNC(=N)N)NC(=O)[C@H](Cc1ccc(O)cc1)NC(=O)[C@H](CC(C)C)NC(=O)[C@H](CO)NC(=O)[C@@H](NC(=O)CCC(=O)O)C(C)C)C(C)C)C(=O)NCC(=O)N[C@H](C(=O)N[C@@H](Cc1ccc(O)cc1)C(N)=O)C(C)C
pIC50: 5.10
//
molecule: CSCC[C@@H]1NC(=O)CNC(=O)CNC(=O)[C@H](C)NC(=O)[C@H](C(C)C)NC(=O)CNC(=O)[C@H](CC(C)C)NC(=O)[C@@H]2CCCN2C(=O)[C@H](CC(=O)O)NC(=O)[C@H](CCC(=O)O)NC(=O)[C@H](Cc2ccc(O)cc2)NC(=O)[C@H](CC(C)C)NC(=O)CNC1=O
pIC50: 6.60
//
molecule: CSCC[C@@H]1NC(=O)[C@H](CCC(=O)O)NC(=O)CNC(=O)[C@H](C)NC(=O)[C@H](C(C)C)NC(=O)CNC(=O)[C@H](CC(C)C)NC(=O)[C@@H]2CCCN2C(=O)[C@H](CC(=O)O)NC(=O)[C@H](CCCNC(=N)N)NC(=O)[C@H](Cc2ccc(O)cc2)NC(=O)[C@@H](NC(=O)CCC(=O)O)CSSC[C@@H](C(N)=O)NC1=O
pIC50: 4.90
//
molecule: CSCC[C@@H]1NC(=O)CNC(=O)CNC(=O)[C@H](C)NC(=O)[C@H](C(C)C)NC(=O)CNC(=O)[C@H](CC(C)C)NC(=O)[C@@H]2CCCN2C(=O)[C@H](CC(=O)O)NC(=O)[C@H](CCC(=O)O)NC(=O)[C@H](Cc2ccc(O)cc2)NC(=O)[C@H](CC(C)C)NC(=O)[C@H](CO)NC(=O)[C@H]2CCCN2C(=O)[C@@H]2CCCN2C(=O)[C@H](C(C)C)NC(=O)CNC1=O
pIC50: 5.20
//
molecule: CC[C@@H]1NC(=O)[C@H](C(C)C)NC(=O)CNC(=O)[C@H](CCCc2ccccc2)NC(=O)[C@@H]2CCCN2C(=O)[C@H](CC(=O)O)NC(=O)[C@H](CCCNC(=N)N)NC(=O)[C@H](Cc2ccc(O)cc2)NC(=O)[C@@H](NC(=O)CCC(=O)O)CSSC[C@@H](C(N)=O)NC(=O)[C@H](CCSC)NC(=O)[C@H](CCC(=O)O)NC(=O)CNC1=O [CP141093] (HELM PEPTIDE1{[O=C(O)CCC(=O)[*:2]].C.Y.R.D.P.[O=C([C@H](CCCc1ccccc1)N[*:1])[*:2]].G.V.[Abu].G.E.M.C.[am]}$PEPTIDE1,PEPTIDE1,2:R3-14:R3$$$V2.0)
pIC50: 4.70
